# experimental system: Histone-lysine N-methyltransferase EZH1 (Homo sapiens)
# Sequence (Q92800 whole entry): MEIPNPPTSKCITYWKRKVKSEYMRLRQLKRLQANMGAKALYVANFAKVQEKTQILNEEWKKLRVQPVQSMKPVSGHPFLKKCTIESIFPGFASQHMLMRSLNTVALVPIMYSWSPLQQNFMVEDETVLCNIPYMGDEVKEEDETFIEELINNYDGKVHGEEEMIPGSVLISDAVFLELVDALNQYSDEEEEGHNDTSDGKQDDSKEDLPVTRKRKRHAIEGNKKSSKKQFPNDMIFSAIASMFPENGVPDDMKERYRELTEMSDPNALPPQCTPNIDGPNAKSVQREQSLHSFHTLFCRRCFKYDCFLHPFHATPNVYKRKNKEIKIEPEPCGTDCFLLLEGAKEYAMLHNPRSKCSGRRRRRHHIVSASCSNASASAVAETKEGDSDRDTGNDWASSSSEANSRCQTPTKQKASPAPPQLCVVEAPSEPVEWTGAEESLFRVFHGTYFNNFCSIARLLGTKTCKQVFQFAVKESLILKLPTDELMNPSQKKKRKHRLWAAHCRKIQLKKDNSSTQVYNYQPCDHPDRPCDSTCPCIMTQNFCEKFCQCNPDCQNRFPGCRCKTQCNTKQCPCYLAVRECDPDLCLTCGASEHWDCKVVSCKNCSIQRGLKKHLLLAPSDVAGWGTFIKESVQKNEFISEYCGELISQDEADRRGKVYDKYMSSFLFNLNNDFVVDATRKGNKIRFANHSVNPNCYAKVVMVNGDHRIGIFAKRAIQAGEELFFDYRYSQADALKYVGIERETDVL
# assay summary: Inhibition of human EZH1
observable: pIC50
Quick note: pIC50 values are minus log10 of concentrations in mol/L.

Consider the compound shown here: Cc1cc(C)c(CNC(=O)c2cc(-c3ccc(N4CCN(C)CC4)nc3)cc3c2c(C)cn3C(C)C)c(=O)[nH]1 What is its recorded pIC50?
6.20
